Tested on: HAP1 MTAP-intact
Test: SDMA in-cell western assay, HAP1 MTAP-intact cell line
Assay type: cell-based
Conditions: Homo sapiens
Quantity Kind: IC50

>  <Compound>
CCCC(=O)N1CC(Nc2cc(C(=O)NC[C@H](O)CN3CCc4cc(OCc5cnco5)ccc4C3)ccn2)C1

>  <IC50>
1 to 10 µM

$$$$
>  <Compound>
O=C(NC[C@H](O)CN1CCc2cc(OCc3cnco3)ccc2C1)c1cc(NC2COC2)nc(N2CCOCC2)n1

>  <IC50>
1 to 10 µM

$$$$
>  <Compound>
O=C(NC[C@H](O)CN1CCc2c(ccc(OCc3cnco3)c2Cl)C1)c1ccnc(NC2CCN(C(=O)C3CC3)CC2)c1

>  <IC50>
≥ 10 µM

$$$$
>  <Compound>
CCCC(=O)N1CCC(Nc2cc(C(=O)NC[C@H](O)CN3CCc4cc(OCc5cnco5)ccc4C3)ccn2)CC1

>  <IC50>
1 to 10 µM

$$$$
>  <Compound>
CC(=O)N1CCC(Nc2cc(C(=O)NC[C@H](O)CN3CCc4c(ccc(OCc5ocnc5C)c4C)C3)ncn2)CC1

>  <IC50>
≥ 10 µM

$$$$

Value sought for every listed compound: IC50.
1. CC(=O)N1CCC(Nc2cc(C(=O)NC[C@H](O)CN3CCc4cc(OCc5ocnc5C)c(F)cc4C3)ncn2)CC1
2. Cc1ncoc1COc1cc2c(cc1F)CN(C[C@@H](O)CNC(=O)c1ccc3c(c1)CCN(C(=O)c1ccc(Br)cc1)C3)CC2

1 to 10 µM
1 to 10 µM

Value sought for every listed compound: IC50.
1. CC(=O)N1CCC(Nc2cc(C(=O)NC[C@H](O)CN3CCc4cc(OCc5ocnc5C)ccc4C3)cc(N3CCCCC3)c2)CC1 (single isomer, unassigned)
2. CC(=O)N1CCC(Nc2cc(C(=O)NC[C@H](O)CN3CCc4nc(OCc5ocnc5C)ccc4C3)ncn2)CC1
3. CC(=O)N1CCC(Nc2cccc(C(=O)NC[C@H](O)CN3CCc4c(ccc(OCc5cnco5)c4C)C3)c2)CC1
4. Cc1ncoc1COc1ccc2c(c1)CCN(C[C@@H](O)CNC(=O)c1cc(NC3COC3)nc(N3CCN(C(C)(C)C)CC3)n1)C2
5. Cc1ncoc1COc1ccc2c(c1)CCN(C[C@@H](O)CNC(=O)c1cc(NC3CCC3)nc(NC3CCC3)c1)C2
6. CC(=O)N1CC(Nc2cc(C(=O)NC[C@H](O)CN3CCc4c(ccc(OCc5cnco5)c4Cl)C3)nc(C(C)C)n2)C1
7. CCCN(C)c1nc(NC2COC2)cc(C(=O)NC[C@H](O)CN2CCc3c(ccc(OCc4cnco4)c3Cl)C2)n1
8. Cc1ncoc1COc1ccc2c(c1)CCN(C[C@@H](O)CNC(=O)c1cc(NC3CC4(CCC4)C3)nc(N3CCN(C(=O)C4CC4)CC3)c1)C2

["1 to 10 µM", "≥ 10 µM", "≥ 10 µM", "1 to 10 µM", "1 to 10 µM", "≥ 10 µM", "≥ 10 µM", "1 to 10 µM"]

Value sought for every listed compound: IC50.
1. CC(=O)N1CCC(Nc2cc(C(=O)NC[C@H](O)CN3CCc4cc(OCc5ocnc5C)ccc4C3)ncn2)CC1
2. Cc1ncoc1COc1ccc2c(c1C)CCN(C[C@@H](O)CNC(=O)c1cc(NC3CCC3)nc(OCCN(C)C)c1)C2
3. Cc1c(OCc2cnco2)ccc2c1CCN(C[C@@H](O)CNC(=O)c1cccc(NC3COC3)c1)C2
4. O=C(NC[C@H](O)CN1CCc2c(ccc(OCc3cnco3)c2Cl)C1)c1cc(NC2COC2)nc(N2CCN(C(=O)C3CC3)CC2)n1
5. CC(=O)N1CC(Nc2cc(C(=O)NC[C@H](O)CN3CCc4cc(OCc5cnco5)ccc4C3)nc(N3CCOCC3)n2)C1
6. CC(C)(C)N1CCN(c2nc(NC3COC3)cc(C(=O)NC[C@H](O)CN3CCc4c(ccc(OCc5cnco5)c4Cl)C3)n2)CC1
7. CC(=O)N1CCC(Nc2cc(C(=O)NC[C@H](O)CN3CCc4c(ccc(OCc5ocnc5C)c4C)C3)cc(N3CCN(C)CC3)n2)CC1

["1 to 10 µM", "≥ 10 µM", "≥ 10 µM", "≥ 10 µM", "≥ 10 µM", "≥ 10 µM", "≥ 10 µM"]

Data provenance is patent US11986471B2.
